Tested on: 12 patient-derived drug resistant viruses
METHOD_NOTES: PhenoSense HIV antiviral assay
Type: cell-based
ASSAY_CONTEXT: read-out: average EC50; average against 12 different drug resistant strains
MEASUREMENT_TYPE: pEC50
# pEC50: negative log10 of molar concentration; output just the value

Lab note: measured pEC50 of CC[C@H](C)CN(C[C@@H](O)[C@H](Cc1ccccc1)NC(=O)O[C@H]1CO[C@H]2OCC[C@H]21)S(=O)(=O)c1ccc(OC)cc1 [10b] was 8.88

###

The reader will find reported Microsomal CLint Rat values listed item by item below.
METHOD_NOTES: Microsomal stability
Assay type: in vitro ADME
ASSAY_CONTEXT: rat microsomes, RTV +
Could you kindly put the unit after your number?

COMPOUND	Microsomal CLint Rat
CCC(CC)CN(C[C@@H](O)[C@H](Cc1ccccc1)NC(=O)O[C@H]1CO[C@H]2OCC[C@H]21)S(=O)(=O)c1ccc(OC)cc1 [11b]	74 μL min^-1 mg^1
CC[C@H](C)CN(C[C@@H](O)[C@H](Cc1ccccc1)NC(=O)O[C@H]1CO[C@H]2OCC[C@H]21)S(=O)(=O)c1ccc(N)cc1 [10a]	67 μL min^-1 mg^1
CC[C@H](C)CN(C[C@@H](O)[C@H](Cc1ccccc1)NC(=O)O[C@H]1CO[C@H]2OCC[C@H]21)S(=O)(=O)c1ccc2c(c1)OCO2 [10d]	771 μL min^-1 mg^1
CC[C@H](C)CN(C[C@@H](O)[C@H](Cc1ccccc1)NC(=O)O[C@H]1CO[C@H]2OCC[C@H]21)S(=O)(=O)c1ccc(CO)cc1 [10c]	79 μL min^-1 mg^1
CCC(CC)CN(C[C@@H](O)[C@H](Cc1ccccc1)NC(=O)O[C@H]1CO[C@H]2OCC[C@H]21)S(=O)(=O)c1ccc(CO)cc1 [11c]	27 μL min^-1 mg^1
CCC(CC)CN(C[C@@H](O)[C@H](Cc1ccccc1)NC(=O)O[C@H]1CO[C@H]2OCC[C@H]21)S(=O)(=O)c1ccc2c(c1)OCO2 [11d]	156 μL min^-1 mg^1

Shift focus to the following entry.
Lab note: measured Microsomal CLint Rat of CC[C@H](C)CN(C[C@@H](O)[C@H](Cc1ccccc1)NC(=O)O[C@H]1CO[C@H]2OCC[C@H]21)S(=O)(=O)c1ccc(OC)cc1 [10b] was 518 μL min^-1 mg^1

// data source = paper PMC3934494
